FYI, the data here is from patent US20190177419A1.

Reported kon by item:
# experimental.target: T1, recombinant human Axl-Fc chimera (R&D Systems, Cat. no. 154-AL) (human, UniProt P30530 26-451)
# T1 construct: extracellular domain; Bought reagent; also called rhAxl-Fc; rhAxl; not shown: Fc part (and any linker or tag) of the bought chimera; not described
# protocol.summary: SPR, Biacore 3000, 25 C, rhAxl-Fc immobilised on CM5 (190 RU), antibody injected, 1:1 Langmuir model
Quick reminder: number only, in M⁻¹ s⁻¹, skip the unit.

Below, 3 binders whose answers are already recorded.
chimeric (mouse variable/human constant) IgG1 antibody c10G5 (antibody, V domains shown, 10G5 VH and VL joined in frame to human IgG1 and C-kappa constant domains, made in CHO cells; also called chimeric 10G5; not shown: constant domains of the human IgG1 heavy chain; constant domain of the human light (C-kappa) chain) VH: QVQLQQSGAELVRPGASVKLSCKASGYSFTDFYINWVRQRPGQGLEWIARIFPGGDNTYYNEKFKGKATLTAEESSSTAYIQLSSLTSEDSAVYFCARRGLYYAMDYWGQGISVTVSS VL: DVLMTQTPLSLPVSLGDQASISCRSSQSLVHSNGIPYLHWYLQKPGQSPKLLIYRVSNRFSGVPDRFSGSGSGTDFTLKISRVEAEDLGVYFCSQGTHVPPTFGGGTKLEIK
1.64e+06
mouse monoclonal antibody 10G5 (from hybridoma WR-10G5-E5) (antibody, IgG1, V domains shown, Whole mouse antibody purified from hybridoma supernatant; also called MAb 10G5) VH: QVQLQQSGAELVRPGASVKLSCKASGYSFTDFYINWVRQRPGQGLEWIARIFPGGDNTYYNEKFKGKATLTAEESSSTAYIQLSSLTSEDSAVYFCARRGLYYAMDYWGQGISVTVSS VL: DVLMTQTPLSLPVSLGDQASISCRSSQSLVHSNGIPYLHWYLQKPGQSPKLLIYRVSNRFSGVPDRFSGSGSGTDFTLKISRVEAEDLGVYFCSQGTHVPPTFGGGTKLEIK
829000
mouse monoclonal antibody 10C9 (from hybridoma UT-10C9-B9) (antibody, IgG2b, V domains shown, Whole mouse antibody purified from hybridoma supernatant; Possible N-glycosylation site (NFT) in CDR-H1; also called MAb 10C9) VH: QVQLQQPGPELVKPGASVKISCKTSDYNFTRYYIHWVKQRPGQGLEWIGWIYPGTGDSKYNEKFKGRATLTADTSSSTAYMQLSSQTSEDSAVYFCARNGNYWYFDVWGAGTAVTVSS VL: DIVMTQAAPSGPVTPGESVSISCRSSKSLLHSNGNTYLYWFLQRPGQSPQLLIYRMSNLASGVPDRFSGSGSGTAFTLRISRVEAEDVGIYYCMQHREYPFTFGGGTKLEIK
1.61e+06

For chimeric (mouse variable/human constant) IgG1 antibody c10C9 (antibody, V domains shown, 10C9 VH and VL joined in frame to human IgG1 and C-kappa constant domains, made in CHO cells; also called chimeric 10C9; not shown: constant domains of the human IgG1 heavy chain; constant domain of the human light (C-kappa) chain) VH: QVQLQQPGPELVKPGASVKISCKTSDYNFTRYYIHWVKQRPGQGLEWIGWIYPGTGDSKYNEKFKGRATLTADTSSSTAYMQLSSQTSEDSAVYFCARNGNYWYFDVWGAGTAVTVSS VL: DIVMTQAAPSGPVTPGESVSISCRSSKSLLHSNGNTYLYWFLQRPGQSPQLLIYRMSNLASGVPDRFSGSGSGTAFTLRISRVEAEDVGIYYCMQHREYPFTFGGGTKLEIK the binder record lists kon as 2.16e+06
